# Measured On: eeAChE (Electrophorus electricus)
# Procedure Summary: In vitro eeAChE inhibition, Ellman's method
# Format: biochemical
Reported SI = selectivity index = IC50 of eqBChE/IC50 of eeAChE is given for each of the following compounds.
Quantity Measured: SI = selectivity index = IC50 of eqBChE/IC50 of eeAChE

Compound: O=C1CCCC2=C1C(c1c[nH]c3ccccc13)n1c(s/c(=C\c3ccc(OCc4ccccc4)cc3)c1=O)=N2 (centres unmarked)
Result Value: 1.9
--
Compound: O=C1CC(c2ccccc2)CC2=C1C(c1c[nH]c3ccccc13)n1c(s/c(=C\c3c[nH]c4ccccc34)c1=O)=N2 (centres unmarked)
Result Value: 14.1
--
Compound: COc1ccc(C2CC(=O)C3=C(C2)N=c2s/c(=C\c4ccc(OCc5ccccc5)cc4)c(=O)n2C3c2c[nH]c3ccccc23)cc1 (centres unmarked)
Result Value: 1.3
--
Compound: COc1ccc(C2CC(=O)C3=C(C2)N=c2s/c(=C\c4c[nH]c5ccccc45)c(=O)n2C3c2c[nH]c3ccccc23)cc1 (centres unmarked)
Result Value: 11.8
--
Compound: O=C1CC(c2ccccc2)CC2=C1C(c1c[nH]c3ccccc13)n1c(s/c(=C\c3ccc(OCc4ccccc4)cc3)c1=O)=N2 (centres unmarked)
Result Value: 1.9

====

As an illustration, consider measured pIC50 for molecules on UniProtKB P81908.
pIC50: −log10 of the molar value.
Quantity Measured: pIC50

Molecule: O=C1CC(c2ccccc2)CC2=C1C(c1c[nH]c3ccccc13)n1c(s/c(=C\c3ccc(OCCNCCc4c[nH]c5ccccc45)cc3)c1=O)=N2 (centres unmarked)
Quantity Measured: pIC50
Result Value: 5.86

Molecule: COc1ccc(C2CC(=O)C3=C(C2)N=c2s/c(=C\c4c[nH]c5ccccc45)c(=O)n2C3c2c[nH]c3ccccc23)cc1 (centres unmarked)
Quantity Measured: pIC50
Result Value: 4.98

Molecule: O=C1CC(c2ccccc2)CC2=C1C(c1c[nH]c3ccccc13)n1c(s/c(=C\c3ccc(OCc4ccccc4)cc3)c1=O)=N2 (centres unmarked)
Quantity Measured: pIC50
Result Value: 5.77

Molecule: O=C1CC(c2ccccc2)CC2=C1C(c1c[nH]c3ccccc13)n1c(s/c(=C\c3c[nH]c4ccccc34)c1=O)=N2 (centres unmarked)
Quantity Measured: pIC50
Result Value: 4.86

Molecule: O=C1CCCC2=C1C(c1c[nH]c3ccccc13)n1c(s/c(=C\c3ccc(OCCNCCc4c[nH]c5ccccc45)cc3)c1=O)=N2 (centres unmarked)
Quantity Measured: pIC50
Result Value: 6.36

====

# Measured On: hMAO-B (Homo sapiens, UniProt P27338)
# Sequence (P27338 1-520): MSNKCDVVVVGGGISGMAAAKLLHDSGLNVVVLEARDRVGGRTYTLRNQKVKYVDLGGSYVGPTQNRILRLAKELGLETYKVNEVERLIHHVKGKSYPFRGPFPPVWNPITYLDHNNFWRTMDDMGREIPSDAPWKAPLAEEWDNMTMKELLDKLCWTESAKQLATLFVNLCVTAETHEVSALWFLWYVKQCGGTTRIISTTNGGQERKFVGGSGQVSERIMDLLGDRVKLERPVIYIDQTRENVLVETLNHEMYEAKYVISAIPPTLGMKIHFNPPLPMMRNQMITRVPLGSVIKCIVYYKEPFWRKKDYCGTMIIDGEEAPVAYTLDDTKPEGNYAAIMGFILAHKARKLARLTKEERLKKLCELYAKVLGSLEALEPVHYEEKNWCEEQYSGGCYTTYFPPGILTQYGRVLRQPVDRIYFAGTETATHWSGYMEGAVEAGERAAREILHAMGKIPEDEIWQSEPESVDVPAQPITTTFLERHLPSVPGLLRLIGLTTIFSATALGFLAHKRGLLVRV
# Procedure Summary: In vitro inhibition of recombinant human MAO-B, fluorometric
pIC50: −log10 of the molar value.

Compound: COc1ccc(C2CC(=O)C3=C(C2)N=c2s/c(=C\c4c[nH]c5ccccc45)c(=O)n2C3c2c[nH]c3ccccc23)cc1 (centres unmarked)
pIC50: 6.51

Compound: COc1ccc(C2CC(=O)C3=C(C2)N=c2s/c(=C\c4ccc(OCc5ccccc5)cc4)c(=O)n2C3c2c[nH]c3ccccc23)cc1 (centres unmarked)
pIC50: 6.17

Compound: CC1(C)CC(=O)C2=C(C1)N=c1s/c(=C\c3ccc(OCc4ccccc4)cc3)c(=O)n1C2c1c[nH]c2ccccc12 (centres unmarked)
pIC50: 6.42

Compound: CC1(C)CC(=O)C2=C(C1)N=c1s/c(=C\c3ccc(OCCNCCc4c[nH]c5ccccc45)cc3)c(=O)n1C2c1c[nH]c2ccccc12 (centres unmarked)
pIC50: 6.48

Compound: O=C1CC(c2ccccc2)CC2=C1C(c1c[nH]c3ccccc13)n1c(s/c(=C\c3c[nH]c4ccccc34)c1=O)=N2 (centres unmarked)
pIC50: 6.33

====

# Procedure Summary: Neurotoxicity MTT assay on neuroblastoma SH-SY5Y cells
# Format: cell-based
# Assay Setup: human
Quantity Measured: viability at 20 µM (%)

Compound: CC1(C)CC(=O)C2=C(C1)N=c1s/c(=C\c3ccc(OCCNCCc4c[nH]c5ccccc45)cc3)c(=O)n1C2c1c[nH]c2ccccc12 (centres unmarked)
U: %
Result Value: 94.9
//
Compound: COc1ccc(C2CC(=O)C3=C(C2)N=c2s/c(=C\c4ccc(OCCNCCc5c[nH]c6ccccc56)cc4)c(=O)n2C3c2c[nH]c3ccccc23)cc1 (centres unmarked)
U: %
Result Value: 90.3

====

# Procedure Summary: Neurotoxicity MTT assay on neuroblastoma SH-SY5Y cells
# Type: cell-based
# Assay Setup: human
Quick reference for viability at 40 µM among some molecules
Quantity Measured: viability at 40 µM (%)

Molecule: CC1(C)CC(=O)C2=C(C1)N=c1s/c(=C\c3ccc(OCCNCCc4c[nH]c5ccccc45)cc3)c(=O)n1C2c1c[nH]c2ccccc12 (centres unmarked)
Result Value: 91.6
--
Molecule: COc1ccc(C2CC(=O)C3=C(C2)N=c2s/c(=C\c4ccc(OCCNCCc5c[nH]c6ccccc56)cc4)c(=O)n2C3c2c[nH]c3ccccc23)cc1 (centres unmarked)
Result Value: 88.2

====

# Measured On: hMAO-A (Homo sapiens, UniProt P21397)
# Sequence (P21397 whole entry): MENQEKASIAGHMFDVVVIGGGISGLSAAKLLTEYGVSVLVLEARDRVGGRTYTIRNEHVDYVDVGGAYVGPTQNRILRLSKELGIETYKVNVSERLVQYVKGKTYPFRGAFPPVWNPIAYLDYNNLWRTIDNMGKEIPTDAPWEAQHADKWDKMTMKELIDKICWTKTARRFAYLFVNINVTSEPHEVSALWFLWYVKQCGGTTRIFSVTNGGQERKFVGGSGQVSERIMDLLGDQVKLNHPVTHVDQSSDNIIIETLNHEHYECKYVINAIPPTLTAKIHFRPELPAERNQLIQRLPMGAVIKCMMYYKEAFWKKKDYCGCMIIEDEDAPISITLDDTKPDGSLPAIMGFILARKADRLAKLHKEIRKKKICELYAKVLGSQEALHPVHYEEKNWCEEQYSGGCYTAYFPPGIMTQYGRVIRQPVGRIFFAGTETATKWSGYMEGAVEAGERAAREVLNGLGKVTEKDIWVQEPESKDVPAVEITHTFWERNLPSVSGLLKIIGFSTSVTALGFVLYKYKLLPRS
# Procedure Summary: In vitro inhibition of recombinant human MAO-A, fluorometric
# Type: biochemical
pIC50: −log10 of the molar value.
Form field: pIC50 (one value per entry).
Quantity Measured: pIC50

Compound: COc1ccc(C2CC(=O)C3=C(C2)N=c2s/c(=C\c4c[nH]c5ccccc45)c(=O)n2C3c2c[nH]c3ccccc23)cc1 (stereo not drawn)
Measured On: hMAO-A (Homo sapiens, UniProt P21397)
Result Value: 4.43
//
Compound: O=C1CC(c2ccccc2)CC2=C1C(c1c[nH]c3ccccc13)n1c(s/c(=C\c3ccc(OCc4ccccc4)cc3)c1=O)=N2 (stereo not drawn)
Measured On: hMAO-A (Homo sapiens, UniProt P21397)
Result Value: 4.95
//
Compound: COc1ccc(C2CC(=O)C3=C(C2)N=c2s/c(=C\c4ccc(OCc5ccccc5)cc4)c(=O)n2C3c2c[nH]c3ccccc23)cc1 (stereo not drawn)
Measured On: hMAO-A (Homo sapiens, UniProt P21397)
Result Value: 4.32

====

# Measured On: eeAChE (Electrophorus electricus, UniProt O42275)
# Sequence (O42275 24-633): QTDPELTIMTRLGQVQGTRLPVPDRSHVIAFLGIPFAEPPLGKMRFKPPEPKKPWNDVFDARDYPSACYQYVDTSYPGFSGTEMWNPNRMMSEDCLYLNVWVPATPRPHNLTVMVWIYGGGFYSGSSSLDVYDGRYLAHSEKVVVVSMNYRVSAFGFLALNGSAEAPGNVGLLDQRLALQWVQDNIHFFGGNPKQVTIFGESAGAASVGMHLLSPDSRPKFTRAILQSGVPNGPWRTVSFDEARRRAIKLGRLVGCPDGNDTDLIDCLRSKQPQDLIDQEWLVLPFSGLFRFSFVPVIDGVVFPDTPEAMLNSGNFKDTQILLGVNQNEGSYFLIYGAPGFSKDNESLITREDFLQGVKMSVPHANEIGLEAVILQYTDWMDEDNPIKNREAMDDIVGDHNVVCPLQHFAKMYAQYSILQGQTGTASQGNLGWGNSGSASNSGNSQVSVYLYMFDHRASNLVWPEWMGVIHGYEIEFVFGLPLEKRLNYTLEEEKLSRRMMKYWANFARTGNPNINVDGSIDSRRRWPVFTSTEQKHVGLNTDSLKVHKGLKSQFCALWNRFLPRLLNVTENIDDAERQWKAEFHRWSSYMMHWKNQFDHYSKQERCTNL
# Procedure Summary: In vitro eeAChE inhibition, Ellman's method
# Assay type: biochemical
# Assay Setup: read-out: IC50 (μM) ± SEM eeAChE; mean ± SEM (n = 3)

Compound: O=C1CC(c2ccccc2)CC2=C1C(c1c[nH]c3ccccc13)n1c(s/c(=C\c3c[nH]c4ccccc34)c1=O)=N2 (stereo not shown)
U: µM
IC50: 0.97

====

# Measured On: eqBChE (Equus caballus, UniProt P81908)
# Sequence (P81908 whole entry): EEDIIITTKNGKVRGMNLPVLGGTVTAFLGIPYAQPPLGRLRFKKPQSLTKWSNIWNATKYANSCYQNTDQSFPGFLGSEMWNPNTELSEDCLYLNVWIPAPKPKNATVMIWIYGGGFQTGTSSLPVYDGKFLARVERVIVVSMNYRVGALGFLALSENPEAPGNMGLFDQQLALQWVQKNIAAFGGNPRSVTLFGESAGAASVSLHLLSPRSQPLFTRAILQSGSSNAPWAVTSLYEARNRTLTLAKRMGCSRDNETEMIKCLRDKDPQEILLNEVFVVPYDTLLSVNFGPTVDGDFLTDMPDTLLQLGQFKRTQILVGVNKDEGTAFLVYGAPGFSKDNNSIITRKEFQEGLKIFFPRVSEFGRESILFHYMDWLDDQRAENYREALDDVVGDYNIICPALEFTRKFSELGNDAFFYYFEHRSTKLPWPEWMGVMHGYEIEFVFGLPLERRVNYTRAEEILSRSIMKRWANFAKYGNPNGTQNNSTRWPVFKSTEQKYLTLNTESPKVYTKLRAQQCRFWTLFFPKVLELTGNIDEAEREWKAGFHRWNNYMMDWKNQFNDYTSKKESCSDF
pIC50: −log10 of the molar value.
# if value of pIC50 reaches 5, tag 1 (yes); if it stays below, tag 0 (no)

Compound: COc1ccc(C2CC(=O)C3=C(C2)N=c2s/c(=C\c4ccc(OCCNCCc5c[nH]c6ccccc56)cc4)c(=O)n2C3c2c[nH]c3ccccc23)cc1 (stereo not drawn)
Category Label: 1 (yes)

Compound: CC1(C)CC(=O)C2=C(C1)N=c1s/c(=C\c3ccc(OCCNCCc4c[nH]c5ccccc45)cc3)c(=O)n1C2c1c[nH]c2ccccc12 (stereo not drawn)
Category Label: 1 (yes)

Compound: CC1(C)CC(=O)C2=C(C1)N=c1s/c(=C\c3c[nH]c4ccccc34)c(=O)n1C2c1c[nH]c2ccccc12 (stereo not drawn)
Category Label: 0 (no)

Compound: COc1ccc(C2CC(=O)C3=C(C2)N=c2s/c(=C\c4ccc(OCc5ccccc5)cc4)c(=O)n2C3c2c[nH]c3ccccc23)cc1 (stereo not drawn)
Category Label: 1 (yes)

====

# Measured On: hMAO-B (Homo sapiens, UniProt P27338)
# Procedure Summary: In vitro inhibition of recombinant human MAO-B, fluorometric
# Assay type: biochemical
Lab note: compare SI = selectivity index = IC50 of hMAO-A/IC50 of hMAO-B against 10. Equal or greater, write Met. Smaller, write Not met.

Compound: O=C1CC(c2ccccc2)CC2=C1C(c1c[nH]c3ccccc13)n1c(s/c(=C\c3ccc(OCc4ccccc4)cc3)c1=O)=N2 (stereo not drawn)
Category Label: Met
//
Compound: COc1ccc(C2CC(=O)C3=C(C2)N=c2s/c(=C\c4c[nH]c5ccccc45)c(=O)n2C3c2c[nH]c3ccccc23)cc1 (stereo not drawn)
Category Label: Met
//
Compound: COc1ccc(C2CC(=O)C3=C(C2)N=c2s/c(=C\c4ccc(OCc5ccccc5)cc4)c(=O)n2C3c2c[nH]c3ccccc23)cc1 (stereo not drawn)
Category Label: Met
//
Compound: CC1(C)CC(=O)C2=C(C1)N=c1s/c(=C\c3ccc(OCc4ccccc4)cc3)c(=O)n1C2c1c[nH]c2ccccc12 (stereo not drawn)
Category Label: Not met
//
Compound: O=C1CCCC2=C1C(c1c[nH]c3ccccc13)n1c(s/c(=C\c3ccc(OCCNCCc4c[nH]c5ccccc45)cc3)c1=O)=N2 (stereo not drawn)
Category Label: Not met
//
Compound: CC1(C)CC(=O)C2=C(C1)N=c1s/c(=C\c3ccc(OCCNCCc4c[nH]c5ccccc45)cc3)c(=O)n1C2c1c[nH]c2ccccc12 (stereo not drawn)
Category Label: Not met
//
Compound: O=C1CCCC2=C1C(c1c[nH]c3ccccc13)n1c(s/c(=C\c3ccc(OCc4ccccc4)cc3)c1=O)=N2 (stereo not drawn)
Category Label: Not met
//
Compound: O=C1CC(c2ccccc2)CC2=C1C(c1c[nH]c3ccccc13)n1c(s/c(=C\c3c[nH]c4ccccc34)c1=O)=N2 (stereo not drawn)
Category Label: Met
//
Compound: CC1(C)CC(=O)C2=C(C1)N=c1s/c(=C\c3c[nH]c4ccccc34)c(=O)n1C2c1c[nH]c2ccccc12 (stereo not drawn)
Category Label: Not met
